System: MGC-803 human gastric cancer cell line
Assay: MTT cytotoxicity assay, MGC-803
Format: cell-based
Conditions: Homo sapiens, MGC-803, 48 h, mean ± SD from three independent experiments
IC50 values for the compounds below.
Don't forget the unit after the value.

I would be grateful if you could share the reported IC50 for CC(C)c1ccc2c(c1)CCC1[C@](C)(C(=O)OCC(O)CNc3ccccc3F)CCC[C@]21C (stereo partly shown) .
17.5 µM

I would be grateful if you could share the reported IC50 for CC(C)c1ccc2c(c1)CC[C@H]1[C@](C)(C(=O)O)CCC[C@]21C [DHA, Dehydroabietic acid] .
29.8 µM

I would be grateful if you could share the reported IC50 for CC(C)c1ccc2c(c1)CCC1[C@](C)(C(=O)OCC3CN(c4cccc(Br)c4)C(=O)O3)CCC[C@]21C (stereo partly shown) .
9.8 µM

I would be grateful if you could share the reported IC50 for Cc1ccc(NCC(O)COC(=O)[C@]2(C)CCC[C@]3(C)c4ccc(C(C)C)cc4CCC23)cc1 (stereo partly shown) .
21.8 µM

I would be grateful if you could share the reported IC50 for CC(C)c1ccc2c(c1)CCC1[C@](C)(C(=O)OCC3CN(c4ccc(F)cc4)C(=O)O3)CCC[C@]21C (stereo partly shown) .
3.82 µM

I would be grateful if you could share the reported IC50 for CC(C)c1ccc2c(c1)CCC1[C@](C)(C(=O)OCC3CN(c4ccccc4F)C(=O)O3)CCC[C@]21C (stereo partly shown) .
49.9 µM

I would be grateful if you could share the reported IC50 for Cc1ccc(N2CC(COC(=O)[C@]3(C)CCC[C@]4(C)c5ccc(C(C)C)cc5CCC34)OC2=O)cc1 (stereo partly shown) .
5.97 µM

These entries and their values trace back to paper PMC6213879.
